target: hNav1.7 (Homo sapiens (Human), UniProt Q15858); experiment: Patch voltage clamp electrophysiology assay (EP), Syncropatch 384PE, CHO cells expressing Nav1.7; format: cell-based; conditions: holding potential -50 mV; […] compound incubation; read-out: EP_SP hNav1.7 (Ex. 243B) IC50
Sequence (Q15858 other isoform, or with tags, fused parts or gaps): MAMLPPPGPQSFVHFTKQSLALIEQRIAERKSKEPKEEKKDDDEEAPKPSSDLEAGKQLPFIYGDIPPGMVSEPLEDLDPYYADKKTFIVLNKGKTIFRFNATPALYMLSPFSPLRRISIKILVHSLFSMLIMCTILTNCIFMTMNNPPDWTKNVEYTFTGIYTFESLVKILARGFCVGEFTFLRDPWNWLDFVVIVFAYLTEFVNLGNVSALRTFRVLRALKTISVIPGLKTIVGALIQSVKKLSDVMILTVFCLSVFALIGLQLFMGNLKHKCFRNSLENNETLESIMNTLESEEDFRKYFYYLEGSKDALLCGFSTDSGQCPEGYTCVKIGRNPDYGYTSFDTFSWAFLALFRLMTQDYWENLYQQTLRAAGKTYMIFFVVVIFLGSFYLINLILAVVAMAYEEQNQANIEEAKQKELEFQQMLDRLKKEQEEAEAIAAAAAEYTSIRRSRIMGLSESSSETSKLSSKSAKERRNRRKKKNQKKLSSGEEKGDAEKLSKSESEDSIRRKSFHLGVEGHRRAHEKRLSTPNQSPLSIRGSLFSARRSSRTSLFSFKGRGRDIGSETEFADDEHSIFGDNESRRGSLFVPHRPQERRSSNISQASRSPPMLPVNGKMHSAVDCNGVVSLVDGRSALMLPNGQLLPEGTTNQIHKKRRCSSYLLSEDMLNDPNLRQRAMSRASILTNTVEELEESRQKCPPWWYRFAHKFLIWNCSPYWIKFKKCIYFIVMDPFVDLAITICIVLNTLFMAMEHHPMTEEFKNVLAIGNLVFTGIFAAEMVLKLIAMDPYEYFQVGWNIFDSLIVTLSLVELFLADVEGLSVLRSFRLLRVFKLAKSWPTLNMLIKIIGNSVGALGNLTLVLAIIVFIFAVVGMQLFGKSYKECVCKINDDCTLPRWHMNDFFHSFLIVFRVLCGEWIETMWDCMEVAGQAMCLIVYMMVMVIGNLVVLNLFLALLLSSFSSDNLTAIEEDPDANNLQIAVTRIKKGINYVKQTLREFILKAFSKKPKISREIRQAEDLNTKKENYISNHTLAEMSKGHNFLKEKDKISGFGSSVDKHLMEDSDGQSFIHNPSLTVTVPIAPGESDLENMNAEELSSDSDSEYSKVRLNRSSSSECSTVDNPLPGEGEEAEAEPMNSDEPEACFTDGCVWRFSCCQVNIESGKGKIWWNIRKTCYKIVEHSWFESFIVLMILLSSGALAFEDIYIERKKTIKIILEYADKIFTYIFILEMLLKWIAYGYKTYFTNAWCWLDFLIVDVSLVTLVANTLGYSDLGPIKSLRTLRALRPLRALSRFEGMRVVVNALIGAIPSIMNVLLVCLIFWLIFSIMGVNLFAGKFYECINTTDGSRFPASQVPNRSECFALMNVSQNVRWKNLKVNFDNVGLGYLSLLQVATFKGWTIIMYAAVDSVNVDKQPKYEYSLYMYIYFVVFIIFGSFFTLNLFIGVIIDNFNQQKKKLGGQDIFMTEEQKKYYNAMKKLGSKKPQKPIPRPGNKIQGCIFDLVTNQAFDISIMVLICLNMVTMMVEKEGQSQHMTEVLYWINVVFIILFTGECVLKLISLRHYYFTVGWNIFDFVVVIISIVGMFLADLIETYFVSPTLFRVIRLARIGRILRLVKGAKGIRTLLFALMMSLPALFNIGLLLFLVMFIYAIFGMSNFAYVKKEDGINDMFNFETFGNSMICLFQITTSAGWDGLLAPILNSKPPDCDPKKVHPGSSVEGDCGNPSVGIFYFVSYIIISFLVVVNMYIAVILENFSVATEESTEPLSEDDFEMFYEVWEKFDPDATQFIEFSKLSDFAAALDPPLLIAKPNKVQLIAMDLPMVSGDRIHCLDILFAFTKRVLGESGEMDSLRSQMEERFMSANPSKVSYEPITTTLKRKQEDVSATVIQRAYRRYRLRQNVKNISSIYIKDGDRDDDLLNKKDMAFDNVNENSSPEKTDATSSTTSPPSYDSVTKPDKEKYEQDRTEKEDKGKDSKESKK
Structures can show the parent of a compound that is named as a salt.
Items are presented alongside their recorded IC50.
Expressed in nM, but write only the number.

Consider the following illustrative entries.
[[record]]
compound = "CN(C)[C@@H]1C[C@@H]2[C@H](C[C@H]1Nc1cc(F)c(S(=O)(=O)Nc3nccs3)cc1Cl)C2(Cl)Cl [Example 195, formate]"
unit_abbrev = "nM"
quantitative_readout = 1.4

[[record]]
compound = "CN(C)[C@H]1CCC(c2cccc(C(F)(F)F)c2)C[C@@H]1Nc1cc(F)c(S(=O)(=O)Nc2ccncn2)cc1Cl (stereo in doubt) [Example 120]"
unit_abbrev = "nM"
quantitative_readout = 4.1

[[record]]
compound = "CN(C)[C@H]1C[C@@H](c2cccc(C(F)(F)F)c2)CC[C@@H]1Nc1cc(F)c(S(=O)(=O)Nc2ccncn2)cc1Cl [Example 181]"
unit_abbrev = "nM"
quantitative_readout = 0.783


--- query ---
For the record CN1CC[C@@H](C(=O)N(C)[C@H]2CCCC[C@@H]2Nc2cc(F)c(S(=O)(=O)Nc3nccs3)cc2Cl)C1 [Example 200] , what value of IC50 is listed for hNav1.7 (Homo sapiens (Human), UniProt Q15858)?
16.7
